Provide the reported mean geometric MIC, Vancomycin Resistant Strains of each item.
# Test system: vancomycin-resistant enterococci
# experiment: broth micro-dilution, mean geometric MIC
# Format: cell-based, Enterococcus faecium and Enterococcus faecalis
# experimental setup: enterococci, 24-hour incubation
The answer consists of two parts: a number and, after it, its unit.

compound	target	recorded result
CC(C)CC(C(=O)NC1C(=O)NC(CC(N)=O)C(=O)NC2C(=O)NC3C(=O)NC(C(=O)NC(C(=O)O)c4cc(O)cc(O)c4-c4cc3ccc4O)C(OC3CC(C)(N)C(O)C(C)O3)c3ccc(c(Cl)c3)Oc3cc2cc(c3OC2OC(CO)C(O)C(O)C2OC2CC(C)(NCc3c4c(cc5ccccc35)CCCC4)C(O)C(C)O2)Oc2ccc(cc2Cl)C1O)N(C)Cc1c2c(cc3ccccc13)CCCC2 (stereo not drawn)	vancomycin-resistant enterococci	5.7 µg/mL

# batch: return mean geometric MIC, Vancomycin Resistant Strains for each of the 2 compounds below
1. CNC(CC(C)C)C(=O)NC1C(=O)NC(CC(N)=O)C(=O)NC2C(=O)NC3C(=O)NC(C(=O)NC(C(=O)O)c4cc(O)cc(O)c4-c4cc3ccc4O)C(OC3CC(C)(NCc4ccc([N+](=O)[O-])cc4)C(O)C(C)O3)c3ccc(c(Cl)c3)Oc3cc2cc(c3OC2OC(CO)C(O)C(O)C2OC2CC(C)(NCc3ccc([N+](=O)[O-])cc3)C(O)C(C)O2)Oc2ccc(cc2Cl)C1O (stereo not drawn)
2. CNC(CC(C)C)C(=O)NC1C(=O)NC(CC(N)=O)C(=O)NC2C(=O)NC3C(=O)NC(C(=O)NC(C(=O)O)c4cc(O)cc(O)c4-c4cc3ccc4O)C(OC3CC(C)(N)C(O)C(C)O3)c3ccc(c(Cl)c3)Oc3cc2cc(c3OC2OC(CO)C(O)C(O)C2OC2CC(C)(NCc3ccc(OC(F)(F)C(F)F)cc3)C(O)C(C)O2)Oc2ccc(cc2Cl)C1O (stereo not drawn)

["13 µg/mL", "1.0 µg/mL"]

# batch: return mean geometric MIC, Vancomycin Resistant Strains for each of the 3 compounds below
1. CNC(CC(C)C)C(=O)NC1C(=O)NC(CC(N)=O)C(=O)NC2C(=O)NC3C(=O)NC(C(=O)NC(C(=O)O)c4cc(O)cc(O)c4-c4cc3ccc4O)C(OC3CC(C)(N)C(O)C(C)O3)c3ccc(c(Cl)c3)Oc3cc2cc(c3OC2OC(CO)C(O)C(O)C2OC2CC(C)(NCc3sccc3-c3cccs3)C(O)C(C)O2)Oc2ccc(cc2Cl)C1O (stereo not drawn)
2. CNC(CC(C)C)C(=O)NC1C(=O)NC(CC(N)=O)C(=O)NC2C(=O)NC3C(=O)NC(C(=O)NC(C(=O)O)c4cc(O)cc(O)c4-c4cc3ccc4O)C(OC3CC(C)(N)C(O)C(C)O3)c3ccc(c(Cl)c3)Oc3cc2cc(c3OC2OC(CO)C(O)C(O)C2OC2CC(C)(NCc3ccc(-c4ccc([N+](=O)[O-])cc4)cc3)C(O)C(C)O2)Oc2ccc(cc2Cl)C1O (stereo not drawn)
3. CNC(CC(C)C)C(=O)NC1C(=O)NC(CC(N)=O)C(=O)NC2C(=O)NC3C(=O)NC(C(=O)NC(C(=O)O)c4cc(O)cc(O)c4-c4cc3ccc4O)C(OC3CC(C)(N)C(O)C(C)O3)c3ccc(c(Cl)c3)Oc3cc2cc(c3OC2OC(CO)C(O)C(O)C2OC2CC(C)(NCC3CCC(COCc4ccccc4)CC3)C(O)C(C)O2)Oc2ccc(cc2Cl)C1O (stereo not drawn)

1: 1.4 µg/mL; 2: 0.71 µg/mL; 3: 2.8 µg/mL

Data origin, for the record: patent US5840684A
